Listing of entries alongside the reported MIC (μg/ml) Broth microdilution.
# Tested on: Escherichia Coli MC 4100
# protocol-details: MIC broth microdilution, E. coli MC 4100 (wild type)
# Assay type: cell-based
# condition-parameters: E. coli MC 4100
attribute-measured: MIC (μg/ml) Broth microdilution (µg/mL)

molecule="CC(N)C(=O)N(C)C(C)C(NC(=O)C(Cc1ccc(C(F)(F)F)cc1)NC(=O)NC(Cc1c[nH]c2ccccc12)C(=O)O)C(=O)NCC1CC(O)C(n2ccc(=O)[nH]c2=O)O1 (centres unmarked)" target_desc="Escherichia Coli MC 4100" unit_abbreviation=µg/mL comparison_symbol== reported_measurement=512
molecule="CC(C)CC(N)C(=O)N(C)C(C)C(NC(=O)C(Cc1ccc(F)cc1)NC(=O)NC(Cc1c[nH]c2ccccc12)C(=O)O)C(=O)NCC1CC(O)C(n2ccc(=O)[nH]c2=O)O1 (centres unmarked)" target_desc="Escherichia Coli MC 4100" unit_abbreviation=µg/mL comparison_symbol=> reported_measurement=512
molecule="CC(N)C(=O)N(C)C(C)C(NC(=O)C(Cc1ccccc1)NC(=O)NC(Cc1ccc2ccccc2c1)C(=O)O)C(=O)NCC1CC(O)C(n2ccc(=O)[nH]c2=O)O1 (centres unmarked)" target_desc="Escherichia Coli MC 4100" unit_abbreviation=µg/mL comparison_symbol== reported_measurement=256
molecule="CC(C(NC(=O)C(Cc1ccc(F)cc1)NC(=O)NC(Cc1ccc(O)cc1)C(=O)O)C(=O)NCC1CC(O)C(n2ccc(=O)[nH]c2=O)O1)N(C)C(=O)CCCCN (centres unmarked)" target_desc="Escherichia Coli MC 4100" unit_abbreviation=µg/mL comparison_symbol== reported_measurement=256
molecule="CC(N)C(=O)N(C)C(C)C(NC(=O)C(Cc1ccc(F)cc1)NC(=O)NC(Cc1ccc(O)cc1)C(=O)O)C(=O)NCC1CC(O)C(n2ccc(=O)[nH]c2=O)O1 (centres unmarked)" target_desc="Escherichia Coli MC 4100" unit_abbreviation=µg/mL comparison_symbol== reported_measurement=4

* * *

# Tested on: Pasteurella multocida pm002
# protocol-details: MIC broth microdilution, P. multocida pm002 (wild type)
# Format: cell-based
Listing of entries alongside the reported MIC (μg/ml) Broth microdilution.
attribute-measured: MIC (μg/ml) Broth microdilution (µg/mL)

compound="CC(N)C(=O)N(C)C(C)C(NC(=O)C(Cc1ccc(F)cc1)NC(=O)NC(C(=O)O)c1ccccc1)C(=O)NCC1CC(O)C(n2ccc(=O)[nH]c2=O)O1 (mixture of isomers) [Compound 142]" comparison_symbol=> reported_measurement=512
compound="CC(C(NC(=O)C(Cc1ccccc1)NC(=O)NC(Cc1c[nH]c2ccccc12)C(=O)O)C(=O)NCC1CC(O)C(n2ccc(=O)[nH]c2=O)O1)N(C)C(=O)C(N)Cc1ccc(O)cc1 (centres unmarked)" comparison_symbol== reported_measurement=256
compound=CN[C@@H](C)[C@H](NC(=O)[C@H](Cc1ccccc1)NC(=O)N[C@@H](Cc1c[nH]c2ccccc12)C(=O)O)C(=O)NC[C@H]1C[C@@H](O)[C@H](n2ccc(=O)[nH]c2=O)O1 comparison_symbol== reported_measurement=256
compound="CC(C)CC(N)C(=O)N(C)C(C)C(NC(=O)C(Cc1ccc(F)cc1)NC(=O)NC(Cc1c[nH]c2ccccc12)C(=O)O)C(=O)NCC1CC(O)C(n2ccc(=O)[nH]c2=O)O1 (centres unmarked)" comparison_symbol== reported_measurement=256
compound=C[C@@H]([C@H](NC(=O)[C@H](Cc1ccccc1)NC(=O)N[C@@H](Cc1c[nH]c2ccccc12)C(=O)O)C(=O)NC[C@H]1C[C@@H](O)[C@H](n2ccc(=O)[nH]c2=O)O1)N(C)C(=O)CN comparison_symbol== reported_measurement=64

Values compiled from patent US6482921B1.
